system: human APOE RNA; test: Dose-dependent inhibition of human APOE RNA in differentiated SH-SY5Y cells, free uptake, 5 days (Example 5); assay type: cell-based; settings: 33 nM, 5 days (Table 14)
Strand notation (5' to 3'): a small letter for the sugar, then the base; units joined by * are phosphorothioate-linked, units joined directly phosphodiester-linked; [ ] holds rarer units or linkages, { } end groups; capitals alone tell only the bases. [ms] = mesyl phosphoramidate linkage; e = 2'-O-(2-methoxyethyl) (MOE); k = constrained ethyl (cEt); [5mC] = 5-methylcytosine; d = 2'-deoxy (DNA)
Quantity kind: APOE RNA (% UTC)
State just the number; it will be interpreted in % UTC.

# example entries with known answers
substance="1778111: modified oligonucleotide complementary to human APOE RNA (eA*e[5mC]eTeTeG*kG*dT*dG[ms]dA[ms]dA*dT*d[5mC]*dT*dT*dT*dA[ms]eTeT*eA*eA; antisense) [compound 1778111]" data_value=41
substance="Aes^mCeoTeoTesGesGksTdsGdzAdzAdzTds^mCdsTdsTdsTdsAdzTksTksAesAe (eA*e[5mC]eTeT*eG*kG*dT*dG[ms]dA[ms]dA[ms]dT*d[5mC]*dT*dT*dT*dA[ms]kT*kT*eA*eA) [Compound No. 1757576]" data_value=44
substance="1785617: modified oligonucleotide complementary to human APOE RNA (k[5mC]*dT[ms]dT[ms]kG*dG[ms]kT*dG[ms]dA[ms]dA[ms]dT[ms]d[5mC]*dT*dT*dT*dA*dT*kT*kA*dA[ms]kA; antisense) [compound 1785617]" data_value=84
substance="1746809 (k[5mC]*dT[ms]kT*dG[ms]kG*dT[ms]dG[ms]dA[ms]dA[ms]dT*d[5mC]*dT*dT*dT*dA[ms]dT*dT[ms]kA*kA*kA; antisense) [Compound 1746809]" data_value=80
substance="1785598: modified oligonucleotide complementary to human APOE RNA (k[5mC]*kT*kT*dG[ms]dG[ms]dT[ms]dG[ms]dA[ms]dA[ms]dT*d[5mC]*dT*dT*dT*dA*dT[ms]kT*kA*dA[ms]kA; antisense) [compound 1785598]" data_value=90

Prompt: Request - read-out APOE RNA (% UTC) | tested on human APOE RNA | substance 1757575 (eA*e[5mC]eTeT*kG*kG*dT*dG[ms]dA[ms]dA[ms]dT*d[5mC]*dT*dT*dT*dA[ms]kT*eT*eA*eA; antisense) [Compound 1757575]
Completion: 39

Prompt: Provide value of APOE RNA (% UTC) for this record tested with human APOE RNA: ^mCksTksTksGdzGdzTdzGdzAdzAdzTds^mCdsTdsTdsTdsAdsTdsTksAksAdzAk (antisense k[5mC]*kT*kT*dG[ms]dG[ms]dT[ms]dG[ms]dA[ms]dA[ms]dT*d[5mC]*dT*dT*dT*dA*dT*kT*kA*dA[ms]kA) [Compound No. 1785602]
Completion: 83

Prompt: Notebook: pull reported APOE RNA (% UTC) for human APOE RNA, entry 1746784 (k[5mC]*kT*kT*dG[ms]dG[ms]dT[ms]dG[ms]dA[ms]dA[ms]dT*d[5mC]*dT*dT*dT*dA[ms]dT*kT*kA*dA[ms]kA; antisense) [Compound 1746784]
Completion: 83

Prompt: Can you look up APOE RNA (% UTC) on human APOE RNA for 1778128: modified oligonucleotide complementary to human APOE RNA (eA*e[5mC]eTeTkGkG*dT*dG[ms]dA[ms]dA*dT*d[5mC]*dT*dT*dT*dA[ms]kTeT*eA*eA; antisense) [compound 1778128] ?
Completion: 99

---

List of APOE RNA (% UTC) 33 nM values.
test system: human APOE RNA; assay: Dose-dependent inhibition of human APOE RNA in HepG2 cells, electroporation, 50,000 cells per well, RT-PCR normalized to GAPDH (Example 4, Tables 8-10); assay type: cell-based; details: HepG2 cells, electroporation, 24-hour treatment, 33 nM, Table 8
Strand notation (5' to 3'): a small letter for the sugar, then the base; units joined by * are phosphorothioate-linked, units joined directly phosphodiester-linked; [ ] holds rarer units or linkages, { } end groups; capitals alone tell only the bases. [ms] = mesyl phosphoramidate linkage; e = 2'-O-(2-methoxyethyl) (MOE); k = constrained ethyl (cEt); [5mC] = 5-methylcytosine; d = 2'-deoxy (DNA)
Return type: number; implicit unit % UTC.

Prompt: Query for human APOE RNA: what APOE RNA (% UTC) 33 nM does the record show for 1778154: modified oligonucleotide complementary to human APOE RNA (e[5mC]*eT*eTeGeGeT*dG[ms]dA[ms]dA*dT*d[5mC]*dT*dT*dT*dA*dT*kTkAeA*eA; antisense) [compound 1778154] ?
Completion: 91

Prompt: Notebook: pull reported APOE RNA (% UTC) 33 nM for human APOE RNA, entry 1785617: modified oligonucleotide complementary to human APOE RNA (k[5mC]*dT[ms]dT[ms]kG*dG[ms]kT*dG[ms]dA[ms]dA[ms]dT[ms]d[5mC]*dT*dT*dT*dA*dT*kT*kA*dA[ms]kA; antisense) [compound 1785617]
Completion: 93

---

test system: human APOE RNA; assay: Dose-dependent inhibition of human APOE RNA in HepG2 cells, electroporation, 24 hours (Example 6); assay type: cell-based; conditions: 512 nM
Strand notation (5' to 3'): a small letter for the sugar, then the base; units joined by * are phosphorothioate-linked, units joined directly phosphodiester-linked; [ ] holds rarer units or linkages, { } end groups; capitals alone tell only the bases. [ms] = mesyl phosphoramidate linkage; e = 2'-O-(2-methoxyethyl) (MOE); k = constrained ethyl (cEt); [5mC] = 5-methylcytosine; d = 2'-deoxy (DNA)
Quantity kind: APOE RNA (% UTC)
Enter your answer as a number in % UTC; do not include the unit.

substance="1736492 (e[5mC]*eTeT*eG*eG*eT*dG[ms]dA[ms]dA[ms]dT*d[5mC]*dT*dT*dT*dA[ms]dT*kT*eA*eA*eA; antisense) [Compound 1736492]" quantity_kind="APOE RNA (% UTC)" data_value=52
substance="1736519: 6-10-4 MOE gapmer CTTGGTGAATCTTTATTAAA, linkages sososszzzssssssssss (e[5mC]*eTeT*eGeG*eT*dG[ms]dA[ms]dA[ms]dT*d[5mC]*dT*dT*dT*dA*dT*eT*eA*eA*eA) [compound 1736519]" quantity_kind="APOE RNA (% UTC)" data_value=42
substance="1736524: 6-10-4 MOE gapmer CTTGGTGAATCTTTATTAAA, linkages sssooozzssssssssoss (e[5mC]*eT*eT*eGeGeTdG[ms]dA[ms]dA*dT*d[5mC]*dT*dT*dT*dA*dT*eTeA*eA*eA) [compound 1736524]" quantity_kind="APOE RNA (% UTC)" data_value=66
substance="1736531 (e[5mC]*eT*eT*eG*eG*kTdG[ms]dA[ms]dA[ms]dT*d[5mC]*dT*dT*dT*dA[ms]dT*eT*eA*eA*eA; antisense) [Compound 1736531]" quantity_kind="APOE RNA (% UTC)" data_value=53
substance="1736522: 6-10-4 MOE gapmer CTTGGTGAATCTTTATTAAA, linkages sooosszzssssssssoss (e[5mC]*eTeTeGeG*eT*dG[ms]dA[ms]dA*dT*d[5mC]*dT*dT*dT*dA*dT*eTeA*eA*eA) [compound 1736522]" quantity_kind="APOE RNA (% UTC)" data_value=59
substance="1736527: 6-10-4 MOE gapmer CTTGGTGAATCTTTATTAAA, linkages sssooozzsssssssssss (e[5mC]*eT*eT*eGeGeTdG[ms]dA[ms]dA*dT*d[5mC]*dT*dT*dT*dA*dT*eT*eA*eA*eA) [compound 1736527]" quantity_kind="APOE RNA (% UTC)" data_value=63
substance="1652902: 6-10-4 MOE gapmer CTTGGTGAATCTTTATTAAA, linkages sooooossssssssssoss (antisense e[5mC]*eTeTeGeGeTdG*dA*dA*dT*d[5mC]*dT*dT*dT*dA*dT*eTeA*eA*eA) [compound 1652902]" quantity_kind="APOE RNA (% UTC)" data_value=19
substance="1693105: 6-10-4 MOE gapmer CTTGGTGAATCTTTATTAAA, linkages sosssszzzssssszssss (e[5mC]*eTeT*eG*eG*eT*dG[ms]dA[ms]dA[ms]dT*d[5mC]*dT*dT*dT*dA[ms]dT*eT*eA*eA*eA) [compound 1693105]" quantity_kind="APOE RNA (% UTC)" data_value=59

# input for lookup
Prompt: // returns reported APOE RNA (% UTC) for input 1736529 (e[5mC]*eT*eT*eG*eG*eTdG[ms]dA[ms]dA[ms]dT*d[5mC]*dT*dT*dT*dA[ms]dT*kT*kA*eA*eA; antisense) [Compound 1736529]
Completion: 56

Cited source: patent US20250353873A1
